conditions: in 1,2-dichloroethane, 328.74 K
endpoint-label: solubility (mole fraction)

[
  {
    "compound-structure-string": "O=[N+]([O-])/N=C1\\NCCN1Cc1ccc(Cl)nc1",
    "endpoint-label": "solubility (mole fraction)",
    "value": 0.0271
  }
]

====

settings: in 2-butanone, 299.44 K
endpoint-label: solubility (mole fraction)

[
  {
    "compound-structure-string": "O=[N+]([O-])/N=C1\\NCCN1Cc1ccc(Cl)nc1",
    "value": 0.0192
  }
]

====

conditions: in methanol, 330.75 K

[
  {
    "compound-structure-string": "O=[N+]([O-])/N=C1\\NCCN1Cc1ccc(Cl)nc1",
    "solubility (mole fraction)": 0.00598
  }
]
